The reported numbers originate from paper PMC2671622.

Would you kindly list pKi for each of these molecules?
# target of assay: truncated recombinant AtGABA-T (no-target GABA-T) (Arabidopsis thaliana, UniProt Q94CE5)
# Sequence (Q94CE5 37-504): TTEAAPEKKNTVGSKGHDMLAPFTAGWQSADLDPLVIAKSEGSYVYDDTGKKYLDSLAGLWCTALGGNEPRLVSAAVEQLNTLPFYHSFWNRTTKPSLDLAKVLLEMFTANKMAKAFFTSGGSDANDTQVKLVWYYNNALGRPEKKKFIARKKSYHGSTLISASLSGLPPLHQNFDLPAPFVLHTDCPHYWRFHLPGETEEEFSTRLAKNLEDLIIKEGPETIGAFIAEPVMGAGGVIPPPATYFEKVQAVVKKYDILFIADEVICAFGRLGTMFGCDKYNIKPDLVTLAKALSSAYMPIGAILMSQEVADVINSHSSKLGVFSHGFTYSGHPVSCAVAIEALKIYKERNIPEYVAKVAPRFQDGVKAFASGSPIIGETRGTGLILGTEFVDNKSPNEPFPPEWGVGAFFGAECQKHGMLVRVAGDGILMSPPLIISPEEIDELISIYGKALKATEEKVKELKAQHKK
# test: coupled SSADH assay, NADH at […] nm
When answering, recall that pKi equals minus log10 of the concentration in mol/L, and write that number alone.

Supply reported pKi belonging to this molecule: C=CC(N)CCC(=O)O (stereo not shown) [Vigabatrin]
3.21

Supply reported pKi belonging to this molecule: NCC(=O)O [Glycine]
2.43

Supply reported pKi belonging to this molecule: NCCC[C@H](N)C(=O)O [Ornithine]
3.34

Supply reported pKi belonging to this molecule: NCCC(=O)O [β-Alanine]
3.26
